Parameter residual activity: see the listing below.
TARGET UNDER TEST: TGF-beta receptor type-1 (Homo sapiens)
Sequence (whole entry): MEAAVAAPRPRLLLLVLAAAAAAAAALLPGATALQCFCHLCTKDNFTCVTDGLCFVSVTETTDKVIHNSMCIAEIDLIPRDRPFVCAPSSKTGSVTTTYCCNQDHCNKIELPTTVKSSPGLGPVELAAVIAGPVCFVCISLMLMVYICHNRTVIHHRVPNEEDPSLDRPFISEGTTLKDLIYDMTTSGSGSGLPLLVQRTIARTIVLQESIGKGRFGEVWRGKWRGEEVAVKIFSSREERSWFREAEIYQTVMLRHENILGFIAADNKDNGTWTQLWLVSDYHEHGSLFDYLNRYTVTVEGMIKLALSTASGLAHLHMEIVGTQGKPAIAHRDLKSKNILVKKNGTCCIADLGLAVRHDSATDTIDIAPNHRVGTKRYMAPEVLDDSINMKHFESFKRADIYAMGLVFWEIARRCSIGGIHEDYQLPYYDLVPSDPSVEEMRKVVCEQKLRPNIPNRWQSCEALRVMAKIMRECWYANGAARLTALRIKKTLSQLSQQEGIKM
RUN PARAMETERS: at 1 µM
Description: Millipore: Percentage of residual kinase activity of TGFBR1 at 1uM relative to control. Control inhibitor: Phosphoric acid* at 0.3uM. Buffer: 8 mM MOPS pH 7.0, 0.2 mM EDTA, 1 mM MnCl2
OUTCOME MEASURE: residual activity

> print(dat)
                                    compound                        target.under.test  endpoint.result
 1  Nc1ncnc2c1c(-c1ccc(Oc3ccccc3)cc1)cn2C1CCCC1  TGF-beta receptor type-1 (Homo sapiens)              76%
 2    CC(C)N(CCC(=O)c1ccc2ccccc2c1)Cc1ccccc1  TGF-beta receptor type-1 (Homo sapiens)              76%
 3  Oc1cccc(-c2nc(N3CCOCC3)c3oc4ncccc4c3n2)c1  TGF-beta receptor type-1 (Homo sapiens)              82%
 4   COc1ccc(COc2ccc(Cc3cnc(N)nc3N)cc2OC)cc1  TGF-beta receptor type-1 (Homo sapiens)              79%
 5       CCCCc1c(-c2ccc(OC)cc2)[nH]c2nccnc12  TGF-beta receptor type-1 (Homo sapiens)              84%
 6    O=C1NC(=O)c2c1c1c3ccccc3[nH]c1n1cncc21  TGF-beta receptor type-1 (Homo sapiens)              91%
 7          O=C(c1ccccc1)c1ccc(N2CCOCC2)cc1O  TGF-beta receptor type-1 (Homo sapiens)              95%
 8  COc1cc2nccc(Oc3ccc(NC(=S)NC(=O)c4ccccc4C)cc3)c2cc1OC  TGF-beta receptor type-1 (Homo sapiens)              78%
 9  CCCC(=O)Oc1ccc2[nH]c(C(=O)c3cc4ccccc4[nH]3)cc2c1  TGF-beta receptor type-1 (Homo sapiens)              79%
10                   Nc1ncnc2c1cnn2-c1ccccc1  TGF-beta receptor type-1 (Homo sapiens)              92%
11  O=C(c1cc2cc(O)ccc2[nH]1)c1cc2cc(O)ccc2[nH]1  TGF-beta receptor type-1 (Homo sapiens)              79%
12   N#C/C(=C\c1ccc(O)c(O)c1)C(=O)NCc1ccccc1  TGF-beta receptor type-1 (Homo sapiens)              81%
13          O=c1cc(N2CCOCC2)oc2c1ccc1ccccc12  TGF-beta receptor type-1 (Homo sapiens)              89%
14  Nc1nc(Nc2ccc(S(N)(=O)=O)cc2)nn1C(=O)c1c(F)cccc1F  TGF-beta receptor type-1 (Homo sapiens)             105%
15        NC(=O)Nc1sc(-c2ccc(F)cc2)cc1C(N)=O  TGF-beta receptor type-1 (Homo sapiens)              75%
16  O=C(NC(NC(=S)Nc1ccc(F)c([N+](=O)[O-])c1)C(Cl)(Cl)Cl)C(c1ccccc1)c1ccccc1 (configuration not stated)  TGF-beta receptor type-1 (Homo sapiens)              98%
17           Nc1ncnc2[nH]nc(Nc3ccc(F)cc3)c12  TGF-beta receptor type-1 (Homo sapiens)             107%
